# testTarget: T1, SARS-COV-2 RBD (SARS-COV-2, UniProt P0DTC2 319-539)
# T1 construct: also called WT RBD
# testDetails: ELISA, RBD coated
Below is a list of entries, each paired with its recorded EC50 value.
Please reply with the bare figure in ng/mL and do not write the unit itself.

INSERT INTO results (binder, measurementunits, assayvalue) VALUES
  ('C898 (antibody, V domains shown, IgG; V domains only) VH: QVQLVQSGAEVKKPGSSVKVSCKASGGPFSSYAFTWVRQAPGQGLEWMGGIIATFGTVNYAQKFQGRVTITADEFTSTVNMELSSLRSDDTAVYYCARRDCSTTSCYDEVLYRLVDWGQGTLVTVSS VL: EIVLTQSPGTLSLSPGERATLSCRASQSVNSDYLAWYKQKPGQAPRLLIYGTSSRATGIPDRFSGSGSGTDFTLTISRLEPDDFAVYYCQQYGNSPRTFGQGTKVEIK', 'ng/mL', 7.6);

For reference, reported EC50 for C867 (antibody, V domains shown, IgG; V domains only) VH: QVQLQESGPGLVKSSETLSLTCTVSSGSVRSGGYYWSWIRHHPGKGLEWIGYIFYTGITYYNPSLKSRVIVSVDPSKNQFSLNLTSVTAADTAVYYCASTPYTNGGAFHIWGQGTMVTVSS VL: QSALTQPPSASGSPGQSVTISCTGTSSDVGGHNYVSWYQQFPGKAPKLIIYDVNKRPSGVPDRFSGSKSANTASLTVSGLQAEDEADYHCSSYAGSNNWVFGGGTKLTVL stands at 2.71

For reference, reported EC50 for C1023 (antibody, V domains shown, IgG; V domains only) VH: QVQLVQSGAEMKKPGASVKISCKASGDTFTTNYFHWVRQAPGQGLEWMGIINPSAGSTTYAQRFQGRVTMTGDSSTNTVYLELRSLRSEDTAMYFCAKGSYIPAMRSSFDPWGQGTLVTVSS VL: EIVLTQSPGTLSLSPGERATLSCRASQSVSHRYLAWYQQKPGQAPRLLIDGASNRATGIPDRFSGSGSGTDFTLTISRLEPEDFGVYYCQQYGSSPPFTFGQGTKLEIK stands at 1.13
